- MEASURED_TARGET: Non-receptor tyrosine-protein kinase TYK2 (Homo sapiens)
- Sequence (P29597 whole entry): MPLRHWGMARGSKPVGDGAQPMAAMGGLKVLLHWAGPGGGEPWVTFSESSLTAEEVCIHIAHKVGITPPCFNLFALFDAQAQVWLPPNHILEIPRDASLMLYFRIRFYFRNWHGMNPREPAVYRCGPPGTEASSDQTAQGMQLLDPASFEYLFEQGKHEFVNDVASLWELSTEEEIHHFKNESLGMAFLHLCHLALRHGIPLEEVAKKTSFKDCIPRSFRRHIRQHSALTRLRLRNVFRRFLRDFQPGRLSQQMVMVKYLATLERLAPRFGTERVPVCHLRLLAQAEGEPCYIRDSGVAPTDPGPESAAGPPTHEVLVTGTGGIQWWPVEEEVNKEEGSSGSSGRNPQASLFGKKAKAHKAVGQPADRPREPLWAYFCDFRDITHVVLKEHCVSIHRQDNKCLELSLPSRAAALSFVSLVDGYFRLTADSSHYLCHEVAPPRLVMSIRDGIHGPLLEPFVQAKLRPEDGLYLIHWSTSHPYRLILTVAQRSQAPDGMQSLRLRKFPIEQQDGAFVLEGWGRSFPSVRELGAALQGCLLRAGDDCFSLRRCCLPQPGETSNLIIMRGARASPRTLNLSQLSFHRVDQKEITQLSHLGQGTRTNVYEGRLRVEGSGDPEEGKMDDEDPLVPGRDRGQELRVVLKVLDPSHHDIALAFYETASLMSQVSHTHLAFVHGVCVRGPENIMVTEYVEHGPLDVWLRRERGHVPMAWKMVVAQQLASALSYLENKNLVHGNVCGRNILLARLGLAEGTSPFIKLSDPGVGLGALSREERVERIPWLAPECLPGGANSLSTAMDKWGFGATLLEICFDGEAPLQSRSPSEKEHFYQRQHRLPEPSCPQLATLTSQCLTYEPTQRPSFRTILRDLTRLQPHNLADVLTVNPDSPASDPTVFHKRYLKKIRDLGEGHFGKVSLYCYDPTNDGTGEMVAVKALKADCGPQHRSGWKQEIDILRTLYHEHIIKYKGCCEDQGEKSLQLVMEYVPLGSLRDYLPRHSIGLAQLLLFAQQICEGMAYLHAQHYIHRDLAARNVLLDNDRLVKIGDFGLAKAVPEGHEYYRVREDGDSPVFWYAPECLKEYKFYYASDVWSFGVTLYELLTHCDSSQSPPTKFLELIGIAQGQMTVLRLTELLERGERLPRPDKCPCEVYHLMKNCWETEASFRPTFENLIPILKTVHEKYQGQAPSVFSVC
- ASSAY_NOTES: TYK2 (TYK2/JAK2 PSTAT4 T-BLAST) Alpha Screen Assay
# EC50 per entry
READOUT: EC50 (nM)

1. CO[C@]1(c2cc(OCC3COC3)cc(-c3cn(C)c4cnc(NC(C)=O)cc34)n2)CCOC1 103
2. COC1(c2cccc(-c3cn(C)c4cnc(NC(N)=O)cc34)n2)COC1 142
3. CO[C@@]1(c2cc(C(F)F)cc(-c3cn(C)c4cnc(NC(C)=O)cc34)n2)CCOC1 42
4. Cn1cc(-c2cccc(C3COC3)n2)c2cc(NC(N)=O)ncc21 492

Values compiled from BindingDB's records for patent US20190276450.
